Tested on: Sam68 (KHDRBS1)
protocol description: Sam68 small-molecule binders, primary screen, biochemical, small-molecule microarray, 635 nm fluorescence (AID 1125);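 further: score merges 667 nm channel intensity with signal to noise over triplicate slides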
experimental context: small-molecule microarray binding, higher = more signal
Overview of recorded composite z-score for various molecules

molecule	composite z-score
COC(=O)C(CC#Cc1ccc2c(c1)[C@]1(C(=O)N2)[C@H](C(=O)N2CCN(c3ncccn3)CC2)[C@H]2C(=O)O[C@H](c3ccccc3)[C@H](c3ccccc3)N2[C@@H]1c1ccc(OCCO)cc1)C(=O)OC	1.3
CN1C(=O)C2C=CC(C(O)c3ccc(F)cc3)N(Nc3ccccc3)C2C1=O (centres undefined)	0.57
C=CC[C@]1(C(=O)NCCN2CCOCC2)N=C(c2ccc(OCCCO)cc2)O[C@H]1c1ccccc1CN=[N+]=[N-]	0.826
OCC1CC(c2ccccc2)=NO1 (centres undefined)	-0.424

====

protocol description: basal HepG2 mitochondrial membrane potential changes, profiling panel, cell-based, JC-1 fluorescence, 24 h, 100 nL compound (AID 1167); further: test concentration not given here
experimental context: higher = more signal
readout kind: z-score

molecule	readout kind	reported result
C[C@@H]1ON(c2ccc(C(=O)OC(C)(C)C)cc2)[C@H](c2ccc(O)cc2)[C@H]1C(=O)N1C(=O)OC[C@H]1Cc1ccccc1	z-score	-3.38
COc1ccc(NC(=O)O[C@H]2[C@H](OC(=O)Nc3ccccc3)[C@H](OC(=O)Nc3ccccc3)[C@@H](OC)O[C@@H]2CO)cc1	z-score	-0.186
CC(C)(C)N1CC=CC23O[C@@H]4C=CCCOC(=O)C4[C@H]2C(=O)N(CCO)[C@@H]3C1=O (some centres not stated)	z-score	-0.405
C=CCN1Cc2ccccc2[C@H]2OC(c3ccc(OCCCO)cc3)=N[C@@]2(CC=C)C1=O	z-score	2.11
CC1=C([C@H](O)CCc2ccccc2)[C@H](CO)[C@@H]2C(=O)N(C)C(=O)[C@@H]2C1	z-score	-0.622
O=C1OCCC/C=C\[C@H]2OC34C=CCN(CCN5CCOCC5)C(=O)[C@H]3N(CCCCCCO)C(=O)[C@@H]4C12 (some centres not stated)	z-score	0.538
Cc1cc(C)cc(N2C(=O)CSC2c2cccc([N+](=O)[O-])c2)c1 (configuration not stated)	z-score	1.43

====

protocol description: small-molecule microarray binders of probe aXIP, primary screen, biochemical, NeuroSMM set, 635/667 nm fluorescence (AID 1119);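 further: probe is the protein aXip251-270 applied at 1 µg/mL to compound-printed slides; binding of probe to printed compounds measured as 667 nm fluorescence plus signal to noise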
experimental context: higher = more signal, called active from +8 up or from −8 down
Decision: composite Z-score >= 0.1 yields met, all other cases yield not met.

compound	group label
COCCOC(=O)N1C(=O)[C@@]2(c3cc(C#CC4=CCCCC4)ccc31)[C@H](c1ccccc1OCCO)N1[C@H](c3ccccc3)[C@H](c3ccccc3)OC(=O)[C@H]1[C@@H]2C(=O)N1CCCCCCC1	met
COc1ccccc1CN1C(=O)c2ccccc2[C@](Cc2ccccc2I)(C(=O)NCC(F)(F)F)[C@@H]1c1ccc(CO)cc1	not met
NC(=O)NCC#Cc1ccc2c(c1)[C@]1(C(=O)N2)[C@H](C(=O)NC[C@H](O)c2ccccc2)[C@H]2C(=O)O[C@H](c3ccccc3)[C@H](c3ccccc3)N2[C@@H]1c1ccc(OCCO)cc1	met
CCOC(=O)C[C@H]1[C@H](OC(=O)c2ccccc2-c2ccccc2)[C@@H](NC(=O)C2CCCCC2)c2cc(OCCCO)ccc2N1C(=O)Cc1ccc(OC)cc1	not met
CC(C)(C)OC(=O)CC[C@]1(C(=O)NCC(O)CO)N=C(c2ccc(OCCCO)cc2)O[C@H]1c1ccccc1 (some centres undefined)	met
C=CC[C@@]1(C(=O)N2CCOCC2)N=C(c2ccc(OCCCO)cc2)O[C@@H]1c1ccccc1CN=[N+]=[N-]	met
CCC[C@@H]1C[C@@]1(CCC)[C@@H](NC(=O)OCc1ccccc1)c1ccc(-c2ccccc2)cc1	met
C=C(C)c1cc2c(c(CCCCCC)n1)[Si](C(C)C)(C(C)C)OC2	not met
O=C1O[C@@H](c2ccccc2)[C@@H](c2ccccc2)N2[C@@H](c3ccc(O)cc3)[C@]3(C(=O)Nc4ccc(C#CC5=CCCCC5)cc43)[C@@H](C(=O)NC[C@H](O)c3ccccc3)[C@H]12	met
O=C1O[C@H](c2ccccc2)[C@H](c2ccccc2)N2[C@H]1[C@@H](C(=O)O)[C@]1(C(=O)Nc3ccc(C#CC4=CCCCC4)cc31)[C@H]2c1ccc(O)cc1	met
CCOC(=O)c1ccc(NC(=O)O[C@H]2[C@H](OC(=O)Nc3ccc4c(c3)OCO4)[C@H](OC(=O)Nc3ccc4c(c3)OCO4)[C@@H](OC)O[C@@H]2CO)cc1	met
CN(C)CCCNC(=O)[C@@]1(C)c2ccccc2C(=O)N(Cc2ccccc2)[C@H]1c1ccc(CO)cc1	not met
O=C1C2C=CC(C(O)c3ccc(F)cc3)N(n3cnnc3)C2C(=O)N1Cc1ccccc1 (centres undefined)	met
CC(C)N1C(=O)c2ccccc2[C@@H](C(=O)NC2CC2)[C@@H]1c1ccc(CO)cc1	met

====

Tested on: wheat germ agglutinin (Triticum aestivum), Alexa647-labelled
protocol description: wheat germ agglutinin binders on compound microarrays, profiling panel, artefact control for SMM control-protein annotation, biochemical, small-molecule microarray, 635/667 nm fluorescence (AID 1140);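 further: score merges 667 nm feature emission with signal to noise over triplicate slides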
experimental context: WGA-A647 binding, 635 nm fluorescence, higher = more signal
Decision: composite z-score >= -0.2 yields 1, all other cases yield -1.

structure notation	group label
COC(=O)c1c2oc(c1C(=O)OC)C(=O)N(C)Cc1cn(nn1)C[C@H](Cc1ccccc1)NC(=O)N[C@H](CO)CC2	-1
COc1ccccc1CN1C(=O)c2ccccc2[C@](Cc2ccccc2I)(C(=O)NCC(F)(F)F)[C@@H]1c1ccc(CO)cc1	1
Cc1ccc(S[C@]2(C(=O)NCC(F)(F)F)CC(=O)N(Cc3ccccc3C(F)(F)F)[C@@H]2c2ccc(CO)cc2I)cc1	1
C=CCNC(=O)[C@@H]1[C@H]2C(=O)O[C@H](c3ccccc3)[C@H](c3ccccc3)N2[C@H](c2ccc(O)cc2)[C@@]12C(=O)N(C(=O)OCCOC)c1ccc(C#CC3(O)CCCCCC3)cc12	-1
C#CCN([C@@H](Cc1ccc(O)cc1)C(=O)OC)[C@@H](/C=C/C1CC1)[C@H](O)Cc1ccccc1	-1
COCCCNC(=O)[C@@]1(Cc2ccccc2N=[N+]=[N-])N=C(c2ccc(OCCCO)cc2)O[C@H]1c1ccccc1	1
CCCCCCc1nc(-c2cc(C)c(OC)c(C)c2)c(C)c2c1[Si](C(C)C)(C(C)C)OC2	-1
CC(C)N1C(=O)C[C@@](C(=O)NCCCN(C)C)(c2ccc([N+](=O)[O-])cc2)[C@H]1c1ccc(CO)cc1	1
CC(=O)NCCCC[C@@H]1NC(=O)[C@@H]2C[C@H](C(=O)NCCCC[N+](C)(C)C)[C@H](c3ccc(O)cc3)N2C1=O	-1
COc1ccc([Si](C)(C)[C@@H]2[C@@H](CC(=O)N(CCO)Cc3ccccc3)O[C@]3(C(=O)N(Cc4cccc(N5C(=O)c6cccc7cccc5c67)c4)c4ccccc43)[C@H]2C)cc1	1
Cc1ccc(S[C@]2(C(=O)NCCCN(C)C)CC(=O)N(C3CCCCC3)[C@@H]2c2ccc(CO)cc2)cc1	1
[N-]=[N+]=Nc1ccccc1C[C@]1(C(=O)N2CCOCC2)N=C(c2ccc(OCCCO)cc2)O[C@H]1c1ccccc1	1
COC(=O)[C@@]1(Cc2ccc(OC)cc2)[C@H]2c3cc(C(=O)N4CCCC4)n(Cc4c(-c5ccccc5)noc4C)c3C[C@H]2CN1C(=O)c1ccccc1	1
COc1ccc(-c2cc3c(c(CCc4ccccc4)n2)[Si](C(C)C)(C(C)C)OC3)cn1	-1

====

protocol description: modulators of S6 phosphorylation in cells, primary screen, cell-based, A549, cytoblot, luminescence, serum-stimulated (AID 1158);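 further: serum-stimulated A549 lung adenocarcinoma cells; signal is phosphorylated S6 detected by cytoblot immunostaining with HRP secondary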
experimental context: A549 phospho-S6 cytoblot, 5 h, higher = more signal
Decision: z-score >= -0.6 yields YES, all other cases yield NO.

molecule	group label
OCCCC1=CC(c2ccc(CN3CCCC3)cc2)N(Cc2sc3ccccc3c2Cl)CC1 (stereo unspecified)	YES
C=CCOC(=O)[C@H]1[C@@H]2C(=O)O[C@@H](c3ccccc3)[C@@H](c3ccccc3)N2[C@@H](c2ccc(OCCOC(=O)[C@H]3C[C@H]4C(=O)N[C@@H](CCCCNC(C)=O)C(=O)N4[C@H]3c3ccc(O)cc3)cc2)[C@]12C(=O)Nc1ccccc12	YES
O=C1OCC=C[C@H]2OC34C=CCN(c5ccc(Cl)cc5)C(=O)[C@H]3N(CCO)C(=O)[C@@H]4[C@@H]12 (stereo partly specified)	NO
CN(C)CCCCNC(=O)[C@@H]1C[C@@H]2C(=O)N[C@@H](Cc3ccccc3)C(=O)N2[C@@H]1c1cccc(OCCO)c1	YES
CC(C)Cc1ccc(CN2CC[C@@H](NC(=O)Nc3ccccc3)C2)cc1	NO

====

protocol description: basal S. cerevisiae growth modulation, no modifier, primary screen, OD600, strain BY4716, 24 h, basal condition (AID 1173)
experimental context: OD600, 24 h, higher = more signal, called active from +8 up or from −8 down
Dear colleague, classification is by z-score, with ranges listed here: I = under -0.4, II = from -0.4 up to 1, III = 1 and over

molecule	group label
CC(=O)c1ccc(C(O)C2C=CC3C(=O)N(c4ccccc4)C(=O)C3N2Nc2ccc(C#N)cc2)cc1 (configuration not stated)	I
CC(C)(C)OC(=O)CC[C@]1(C(=O)NCc2ccccc2)N=C(c2ccc(OCCCO)cc2)O[C@H]1c1ccccc1CN=[N+]=[N-]	II
[N-]=[N+]=Nc1ccccc1[C@@H]1OC(c2ccc(OCCCO)cc2)=N[C@]1(Cc1ccccc1)C(=O)NCC(O)CO (some centres not stated)	I
C=C(C)C1CCC(C(O)C2C=CC3C(=O)N(C)C(=O)C3N2N2CCCCC2)CC1 (configuration not stated)	II
CC=CC(O)C1C=CC2C(=O)N(c3ccccc3)C(=O)C2N1Nc1ccccc1F (configuration not stated)	II
CCCC[C@@H]1C[C@H]1[C@@H](NC(=O)c1cccs1)c1ccc(C(F)(F)F)cc1	III
[N-]=[N+]=NCc1ccccc1C[C@]1(C(N)=O)N=C(c2ccc(OCCCO)cc2)O[C@H]1c1ccccc1	II
O=C1C2C=CC(C(O)c3ccc(F)cc3)N(n3cnnc3)C2C(=O)N1Cc1ccccc1 (configuration not stated)	II
CN(C)C(=O)[C@@]1(Cc2ccccc2CN=[N+]=[N-])N=C(c2ccc(OCCCO)cc2)O[C@H]1c1ccccc1CN=[N+]=[N-]	III
Cc1ccc(S[C@]2(C(=O)O)CC(=O)N(Cc3ccccc3Cl)[C@@H]2c2ccc(CO)cc2I)cc1	I
CCOC(=O)c1ccc(NC(=O)O[C@H]2[C@H](OC(=O)Nc3ccc4c(c3)OCO4)[C@H](OC(=O)Nc3ccc4c(c3)OCO4)[C@@H](OC)O[C@@H]2CO)cc1	III
C=C(C)[C@@H]1CC=C(C(O)C2C=CC3C(=O)N(c4ccccc4)C(=O)C3N2Nc2ccccc2F)CC1 (some centres not stated)	II

Origin of the recorded values: PubChem BioAssay
